Test: Itraconazole (strong CYP3A inhibitor) DDI study, plasma pharmacokinetics
Assay type: in vivo, human
Conditions: both sexes, human, plasma; ripretinib 50 mg single oral dose + itraconazole 200 mg QD, fasting, healthy participants (N = 20); read-out: tmax, median (min, max)
measurement.type: Tmax (h)
Record the value in h, omitting the unit from your answer.

Qu. # query: Tmax of entry `CCn1c(=O)c(-c2cc(NC(=O)Nc3ccccc3)c(F)cc2Br)cc2cnc(NC)cc21`
Ans. 4

* * *

Test: Pantoprazole (proton pump inhibitor) DDI study, plasma pharmacokinetics
Assay type: in vivo, human
Details: both sexes, human, plasma, po, ripretinib 50 mg single oral dose + pantoprazole 40 mg QD, fasting, healthy participants (N = 23); read-out: t1/2, arithmetic mean (SD) (converted)
measurement.type: half-life (h)
Record the value in h, omitting the unit from your answer.

Qu. # query: half-life of entry CCn1c(=O)c(-c2cc(NC(=O)Nc3ccccc3)c(F)cc2Br)cc2cnc(NC)cc21 [Ripretinib]
Ans. 14

* * *

Assay: Itraconazole (strong CYP3A inhibitor) DDI study, plasma pharmacokinetics
Format: in vivo, human
Settings: both sexes, human, plasma, po, 50 mg, ripretinib 50 mg single oral dose alone, fasting, healthy participants (itraconazole study, N = 20); read-out: t1/2, geometric mean (CV%) (converted)
measurement.type: half-life (h)
Record the value in h, omitting the unit from your answer.

Qu. # query: half-life of entry CCn1c(=O)c(-c2cc(NC(=O)Nc3ccccc3)c(F)cc2Br)cc2cnc(NC)cc21 [Ripretinib]
Ans. 16

* * *

Experiment: Itraconazole (strong CYP3A inhibitor) DDI study, plasma pharmacokinetics
Type: in vivo, human
Conditions: both sexes, human, plasma, po, 50 mg, ripretinib 50 mg single oral dose alone, fasting, healthy participants (itraconazole study, N = 20); read-out: AUC0–t, geometric mean (CV%)
measurement.type: AUC(0-t) (ng·h/mL)
Record the value in ng·h/mL, omitting the unit from your answer.

Qu. # query: AUC(0-t) of entry CCn1c(=O)c(-c2cc(NC(=O)Nc3ccccc3)c(F)cc2Br)cc2cnc(NC)cc21 [Ripretinib]
Ans. 4060

* * *

Assay: Pantoprazole (proton pump inhibitor) DDI study, plasma pharmacokinetics
Type: in vivo, human
Conditions: both sexes, human, plasma; ripretinib 50 mg single oral dose alone, fasting, healthy participants (pantoprazole study, N = 23); read-out: tmax, median (min, max)
measurement.type: Tmax (h)
Record the value in h, omitting the unit from your answer.

Qu. # query: Tmax of entry `CCn1c(=O)c(-c2cc(NC(=O)Nc3ccccc3)c(F)cc2Br)cc2cnc(NC)cc21`
Ans. 4

* * *

Test: Rifampin (strong CYP3A inducer) DDI study, plasma pharmacokinetics
Assay type: in vivo, human
Conditions: both sexes, human, plasma; ripretinib 100 mg single oral dose + rifampin 600 mg QD, fasting, healthy participants (N = 21); read-out: tmax, median (min, max)
measurement.type: Tmax (h)
Record the value in h, omitting the unit from your answer.

Qu. # query: Tmax of entry `CCn1c(=O)c(-c2cc(NC(=O)Nc3ccccc3)c(F)cc2Br)cc2cnc(NC)cc21`
Ans. 3
